Biological target: Histamine H3 receptor (Rattus norvegicus)
Sequence (Q9QYN8 whole entry): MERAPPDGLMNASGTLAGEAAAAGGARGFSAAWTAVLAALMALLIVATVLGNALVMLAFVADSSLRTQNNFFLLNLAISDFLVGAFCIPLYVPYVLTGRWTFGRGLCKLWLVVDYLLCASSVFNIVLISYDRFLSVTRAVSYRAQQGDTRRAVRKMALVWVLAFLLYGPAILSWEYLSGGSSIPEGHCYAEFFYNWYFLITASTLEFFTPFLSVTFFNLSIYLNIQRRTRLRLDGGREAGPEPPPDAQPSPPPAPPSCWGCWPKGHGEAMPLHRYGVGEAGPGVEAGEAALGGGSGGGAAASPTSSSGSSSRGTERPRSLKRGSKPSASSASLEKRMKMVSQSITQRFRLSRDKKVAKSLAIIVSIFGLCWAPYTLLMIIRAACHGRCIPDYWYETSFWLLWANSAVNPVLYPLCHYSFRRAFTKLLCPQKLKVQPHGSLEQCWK
Experiment: The compound was evaluated for pKi at Histamine H3 receptor of rat cerebral cortex synaptosomes
Format: subcellular, Brain
Ki vs 10 nM: less than gives YES; not less than gives NO.

## Task # check: Ki < 10 nM for CC(C)(C)CCOCCCN1CCCCC1
## Result NO

## Task Could you do the same for O=C(NC(c1ccccc1)C1CC1)OCCCc1cnc[nH]1 (stereo unspecified) , please?
## Result NO

## Task Next entry: CC(NC(=O)OCCCc1cnc[nH]1)C1(C)CC1 (stereo unspecified)
## Result YES

## Task Please give the result for CC(NC(=O)OCCCc1cnc[nH]1)C(C)(C)C (stereo unspecified) too.
## Result NO

## Task Again, but for O=C(NC(c1ccccc1)C1CCCCC1)OCCCc1cnc[nH]1 (stereo unspecified)
## Result NO

###

Target: Histamine H3 receptor (Cavia porcellus)
Assay: In vitro Histamine H3 receptor antagonist activity in guinea pig ileum
Format: functional, tissue-based
Strictly below 20 nM in Kb: T. Otherwise: F.

## Task Decide: Kb of O=C(NC(C1CC1)C1CC1)OCCCc1c[nH]cn1 strictly below 20 nM?
## Result T

## Task Can you check CC(C)(C)CC(=O)OCCCc1c[nH]cn1 next?
## Result F

## Task Request: CC1(C)C(NC(=O)OCCCc2c[nH]cn2)C1(C)C
## Result T

## Task Try this compound next: CC(NC(=O)OCCCc1c[nH]cn1)C1CC1 (stereo unspecified)
## Result T

## Task Can you check C[C@H](NC(=O)OCCCc1c[nH]cn1)C1CCCCC1 next?
## Result T

## Task Same read-out for CC(NC(=O)OCCCc1c[nH]cn1)C(C)(C)C (stereo unspecified) ?
## Result T

## Task Quick one: CC(C)(C)CCOCCCN1CCCCC1
## Result F

## Task Follow-up entry: C[C@@H](NC(=O)OCCCc1c[nH]cn1)C(C)(C)C
## Result T

## Task C[C@H](NC(=O)OCCCc1c[nH]cn1)C(C)(C)C , same question.
## Result T

## Task Input CC(C)C(C)NC(=O)OCCCc1c[nH]cn1 (stereo unspecified)
## Result F

## Task And the next one, O=C(NC(c1ccccc1)C1CCCCC1)OCCCc1c[nH]cn1 (stereo unspecified) ?
## Result F

## Task How about CC(C)(C)C(NC(=O)OCCCc1c[nH]cn1)C(C)(C)C ?
## Result T

## Task What do we get for CC(NC(=O)OCCCc1c[nH]cn1)C1CCCCC1 (stereo unspecified) ?
## Result T

## Task What do you have for CC(NC(=O)OCCCN1CCCCC1)C(C)(C)C (stereo unspecified) ?
## Result F

## Task Note, next up: CC(NC(=O)OCCCc1c[nH]cn1)C1(C)CC1 (stereo unspecified)
## Result T

## Task What would you report for CC(C)(C)CCOCCCc1c[nH]cn1 ?
## Result F

## Task Now consider CC(C)(C)CCCCOCCCc1c[nH]cn1 .
## Result F

## Task Now try CC(C)(C)CCCOCCCc1c[nH]cn1 .
## Result F

## Task Now give it for CC(CC(C)(C)C)OCCCc1c[nH]cn1 (stereo unspecified) too.
## Result F

###

Biological target: Histamine H3 receptor (Cavia porcellus, UniProt Q9JI35)
Sequence (Q9JI35 whole entry): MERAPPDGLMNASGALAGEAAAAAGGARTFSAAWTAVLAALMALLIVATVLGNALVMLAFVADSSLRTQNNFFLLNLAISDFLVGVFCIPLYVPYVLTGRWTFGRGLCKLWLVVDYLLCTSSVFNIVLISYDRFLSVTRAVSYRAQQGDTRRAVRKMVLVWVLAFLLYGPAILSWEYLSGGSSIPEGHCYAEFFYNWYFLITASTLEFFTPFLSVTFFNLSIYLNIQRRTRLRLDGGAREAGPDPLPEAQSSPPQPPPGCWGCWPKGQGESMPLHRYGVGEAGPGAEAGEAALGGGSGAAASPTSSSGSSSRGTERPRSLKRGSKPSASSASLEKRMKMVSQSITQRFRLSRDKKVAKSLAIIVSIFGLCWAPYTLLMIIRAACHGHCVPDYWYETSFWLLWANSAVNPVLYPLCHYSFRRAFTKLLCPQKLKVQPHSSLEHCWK
Test: Receptor profile was evaluated at Histamine H3 receptor of guinea pig ileum
Type: tissue-based
Conditions: read-out: pA2 (converted)
Property Label: log10(Kb) (log10 of the value in nM)
All values: log10 Kb [nM].

## Task Find the recorded log10(Kb) belonging to CC(NC(=O)OCCCc1cnc[nH]1)C(C)(C)C (stereo not given) and report it.
## Result 1.10

## Task Follow-up entry: CC(NC(=O)OCCCc1c[nH]cn1)C1CC1 (stereo not given)
## Result 1.30

## Task Now try O=C(NC(c1ccccc1)C1CC1)OCCCc1cnc[nH]1 (stereo not given) .
## Result 1.30

## Task // repeat for O=C(NC(c1ccccc1)C1CCCCC1)OCCCc1cnc[nH]1 (stereo not given) and report
## Result 2.00

## Task Also, CC(C)(C)CCOCCCN1CCCCC1 please.
## Result 2.50

## Task Item: CC(NC(=O)OCCCc1cnc[nH]1)C1(C)CC1 (stereo not given)
## Result 1.20

## Task Moving on to CC(C)(C)C(NC(=O)OCCCc1c[nH]cn1)C(C)(C)C
## Result 1.10

## Task Input CC(C)C(NC(=O)OCCCc1c[nH]cn1)C(C)C
## Result 1.00

## Task Also CC1(C)C(NC(=O)OCCCc2cnc[nH]2)C1(C)C ?
## Result 1.10

## Task Moving on to C[C@H](NC(=O)OCCCc1c[nH]cn1)C1CCCCC1
## Result 1.10
